Sourced from ChEMBL document CHEMBL1123312

Kindly supply the reported Weight change values for the records listed here.
# System: Mus musculus
# assay-name: Anticancer activity against P388 leukemia in CD2F1 male mice expressed as Average % weight change on day 5 as a measure of toxicity was reported at a dose of 60 mg/kg/day.
# Type: functional
Quick reminder: number only, in %, skip the unit.

Item: S=P(N1CCOCCOCCOCCOCCOCC1)(N1CC1)N1CC1 | Weight change: 12.3

Lab note: S=P(N1CCOCCOCCOCCOCC1)(N1CC1)N1CC1 gave Weight change of -6.4

Value of measured Weight change for the entry C1COCCOCCOCCOCCN1 : 7.9

The recorded Weight change for entry O=P(N1CCOCCOCCOCCOCC1)(N1CC1)N1CC1 equals -4.4

Briefly, Weight change measured for O=P(N1CCOCCOCCOCCOCCOCC1)(N1CC1)N1CC1 : 0.5

So, CCOCCOCCOP(=S)(N1CC1(C)C)N1CC1(C)C (centres undefined) ? Its Weight change was 1.4

CCOCCOCCOP(=O)(N1CC1(C)C)N1CC1(C)C (centres undefined) yielded Weight change of 5.5

Sure, the documented Weight change for CCOCCOCCOP(=S)(N1CC1)N1CC1 is 1.4

Consider CCOCCOCCOP(=O)(N1CC1)N1CC1 . Its measured Weight change is 4.5
